assay overview: Acute toxicity in ICR female mice, oral (Pharmacological Test 4)
experimental setup: mouse, in vivo, suspended in distilled water with 1% hydroxypropylcellulose, observation for fourteen days
quantity measured: LD50 at 336 h

[[record]]
structure_string = "c1cn(-c2nc(N3CCOCC3)nc(N3CCSCC3)n2)cn1"
assay_value = "> 400 mg/kg"

[[record]]
structure_string = "CN(c1ccc(Cl)cc1)c1nc(N2CCOCC2)nc(-n2ccnc2)n1"
assay_value = "> 400 mg/kg"

[[record]]
structure_string = "c1cn(-c2nc(N3CCOCC3)nc(N3CCOCC3)n2)cn1"
assay_value = "200 to 300 mg/kg"

[[record]]
structure_string = "c1cn(-c2nc(N3CCOCC3)nc(N3CCSC3)n2)cn1"
assay_value = "300 to 400 mg/kg"

[[record]]
structure_string = "N#CC1(c2ccccc2)CCN(c2nc(N3CCOCC3)nc(-n3ccnc3)n2)CC1"
assay_value = "> 400 mg/kg"

[[record]]
structure_string = "c1ccc(C2CCN(c3nc(N4CCOCC4)nc(-n4ccnc4)n3)CC2)cc1"
assay_value = "> 400 mg/kg"


====

Dear all, this message contains IC50 results, target or system Aromatase (Homo sapiens, UniProt P11511).
quantity measured: IC50 (nM)

[[record]]
structure_string = "CN(c1ccc(N)cc1)c1nc(N2CCOCC2)nc(-n2ccnc2)n1"
quantity_measured = "IC50"
assay_value = 32

[[record]]
structure_string = "c1cn(-c2nc(N3CCOCC3)nc(N3CCOCC3)n2)cn1"
quantity_measured = "IC50"
assay_value = 5.3

[[record]]
structure_string = "N#CC1(c2ccccc2)CCN(c2nc(N3CCOCC3)nc(-n3ccnc3)n2)CC1"
quantity_measured = "IC50"
assay_value = 9

[[record]]
structure_string = "CN1CCN(c2nc(-n3ccnc3)nc(-n3ccnc3)n2)CC1"
quantity_measured = "IC50"
assay_value = 230

[[record]]
structure_string = "c1ccc(C2CCN(c3nc(N4CCOCC4)nc(-n4ccnc4)n3)CC2)cc1"
quantity_measured = "IC50"
assay_value = 38

[[record]]
structure_string = "c1cn(-c2nc(N3CCCC3)nc(-n3ccnc3)n2)cn1"
quantity_measured = "IC50"
assay_value = 62

[[record]]
structure_string = "CN(C)c1nc(N2CCCCC2)nc(-n2ccnc2)n1"
quantity_measured = "IC50"
assay_value = 770

[[record]]
structure_string = "c1cn(-c2nc(N3CCSCC3)nc(N3CCSCC3)n2)cn1"
quantity_measured = "IC50"
assay_value = 5.1

[[record]]
structure_string = "CN(c1ccc(Cl)cc1)c1nc(N2CCOCC2)nc(-n2ccnc2)n1"
quantity_measured = "IC50"
assay_value = 7.7


====

system: cholesterol side-chain cleaving enzyme (Sus scrofa, UniProt P10612)
Construct: porcine adrenal mitochondria; from tissue; host or cells: porcine adrenal mitochondria
Sequence (P10612 40-520): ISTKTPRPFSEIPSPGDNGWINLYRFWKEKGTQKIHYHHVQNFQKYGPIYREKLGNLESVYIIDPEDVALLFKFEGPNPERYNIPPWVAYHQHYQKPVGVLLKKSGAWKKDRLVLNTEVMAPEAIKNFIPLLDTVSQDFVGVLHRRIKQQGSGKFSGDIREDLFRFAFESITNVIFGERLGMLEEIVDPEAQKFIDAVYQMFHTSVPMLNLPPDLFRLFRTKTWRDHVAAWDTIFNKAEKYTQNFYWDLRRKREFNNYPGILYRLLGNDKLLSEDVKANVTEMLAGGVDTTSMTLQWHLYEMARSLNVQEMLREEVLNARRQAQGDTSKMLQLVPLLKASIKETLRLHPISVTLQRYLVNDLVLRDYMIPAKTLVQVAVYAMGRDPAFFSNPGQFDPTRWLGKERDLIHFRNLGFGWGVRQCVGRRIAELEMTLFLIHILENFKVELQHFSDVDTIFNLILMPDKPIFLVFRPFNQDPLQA
assay overview: Inhibitory activity against cholesterol side-chain cleaving enzyme (Pharmacological Test 2, porcine adrenal mitochondria)
Assay type: biochemical
experimental setup: substrate 5-cholesten-3β-ol 5.0×10^-6 M, read-out: SCC-IC50
pIC50: −log10 of the molar value.
# reported pIC50; entries follow
quantity measured: pIC50

[[record]]
molecule = "CN(c1ccc(Cl)cc1)c1nc(N2CCOCC2)nc(-n2ccnc2)n1 [Compound 55]"
quantity_measured = "pIC50"
comparison_operator = "="
assay_value = 4.59

[[record]]
molecule = "CC1CN(c2nc(N3CCOCC3)nc(-n3ccnc3)n2)CC(C)O1 (stereo not drawn) [Compound 10]"
quantity_measured = "pIC50"
comparison_operator = "<"
assay_value = 4.00

[[record]]
molecule = "CN(c1ccccc1)c1nc(-n2ccnc2)nc(-n2ccnc2)n1 [Compound 32]"
quantity_measured = "pIC50"
comparison_operator = "="
assay_value = 4.80

[[record]]
molecule = "c1cn(-c2nc(N3CCCCC3)nc(N3CCCCC3)n2)cn1 [Compound 18]"
quantity_measured = "pIC50"
comparison_operator = "<"
assay_value = 4.00

[[record]]
molecule = "Cc1ncn(-c2nc(N(C)C)nc(-n3ccnc3)n2)c1C [Compound 5]"
quantity_measured = "pIC50"
comparison_operator = "<"
assay_value = 4.00

[[record]]
molecule = "CC1CN1c1nc(N2CCOCC2)nc(-n2ccnc2)n1 (stereo not drawn) [Compound 42]"
quantity_measured = "pIC50"
comparison_operator = "<"
assay_value = 4.00

[[record]]
molecule = "CCCCN(c1ccccc1)c1nc(-n2ccnc2)nc(-n2ccnc2)n1 [Compound 50]"
quantity_measured = "pIC50"
comparison_operator = "="
assay_value = 4.82

[[record]]
molecule = "O=[N+]([O-])c1ccc(N2CCN(c3nc(N4CCOCC4)nc(-n4ccnc4)n3)CC2)cc1 [Compound 45]"
quantity_measured = "pIC50"
comparison_operator = "<"
assay_value = 4.00

[[record]]
molecule = "c1ccc(CN2CCN(c3nc(N4CCOCC4)nc(-n4ccnc4)n3)CC2)cc1 [Compound 9]"
quantity_measured = "pIC50"
comparison_operator = "="
assay_value = 4.82

